Data provenance: ChEMBL document CHEMBL5214999

assay: Lipophilicity, logD of compound at pH 7.4 by Chromatography; type: physicochemical; details: buffer
endpoint_name: chromatographic logD
Respond with the number and no other words.

| structure_notation | chromatographic logD |
| --- | --- |
| CCOc1ccc2c(c1)C(c1cn[nH]c1)=CN(C)C(=O)[C@@H]2C | 3.4 |
| COc1cc2c(cc1OC)[C@@H](C)C(=O)N(C)CC2 | 2.6 |
| COCCOc1ccc2c(c1)C=CN(C)C(=O)[C@@H]2C | 4 |
| C[C@H]1C(=O)N(C)C=Cc2cc(CN3CCCC3)ccc21 | 1.5 |

Next molecule, please.
Sample Cc1nc(C2=CN(C)C(=O)[C@H](C)c3ccc(OCCO)cc32)c[nH]1 ; chromatographic logD observed: 1.5
